# key: entry, value: melting point
parameter: melting point

* C=CCOC(=O)C(=[N+]=[N-])C(=O)CC1CC(=O)N1 (stereo not drawn) | 83 °C
* CC(C)OCC1(C(C)(F)F)c2cc(C#N)ccc2Nc2ncc(Cl)cc21 (stereo not drawn) | 79 to 81 °C
* O=C(Cc1ccccc1)NCC(=O)c1ccccc1 | 66 to 77 °C
* CS(=O)(=O)c1ccc(-n2nc(-c3ccc(O)cc3O)c3ccc(O)cc32)cc1 | 94 to 96 °C
* N#Cc1c(C(=O)O)nn(-c2ccc(Cl)cc2Cl)c1-c1ccc(Cl)cc1 | 132 to 137 °C
* CCc1nc2c(N)nc(C)c(C)c2n1NC1CCCCC1 | 190 to 192 °C
* CC(C)c1ccc(C(=O)NCCCCN2CCN(C(c3ccccc3)c3ccccc3)CC2)c(O)n1 | 184 to 186 °C
* [N-]=[N+]=NC(=O)c1ccc(-c2ccc(C(F)(F)F)cc2)s1 | 97 °C
* Cc1cc(=O)c(C(=O)Nc2cccc(C)c2C)c(C)o1 | 174 to 176 °C
* CCOC(=O)c1cn(C2CC2)c2c(F)c(NCCO)c(F)c(F)c2c1=O | 193 to 195 °C
* CCOC(=O)c1sc(NC(C)=O)nc1CCl | 164 to 165 °C
* N#Cc1ccc([C@H]2CC[C@H](CO)CC2)cc1 | 108 °C
* COCCN1CCN(CCc2ccc(Nc3ncc4c(n3)-c3ccccc3C(c3ccccc3)C4)cc2)CC1 (stereo not drawn) | 52 to 54 °C
* CC(C)N(CCOc1cccc2nc(Cl)c3ccccc3c12)C(C)C | 88 to 91 °C
* O=C1C(=O)N(Cc2ccc(Br)cc2)c2ccc(S(=O)(=O)N3CCCC3COc3ccccc3)cc21 (stereo not drawn) | 112 to 113 °C
* Cc1cccc2c1NC(=O)C(CCCN1CCN(c3ccccc3F)CC1)S2 (stereo not drawn) | 121 to 123 °C
* CC(C)(C)S(=O)(=O)N[C@H]1CC[C@H](C(=O)O)CC1 | 201 to 203 °C
* O=C(O)c1cccc(-c2ccc3c(c2)C(NCc2ccc(Cl)cc2Cl)CC3)c1 (stereo not drawn) | 190 to 191 °C
